Where do the numbers come from? From patent US20230053493A1.

# Measurement Target: Albumin (Homo sapiens)
# Sequence (P02768 25-609): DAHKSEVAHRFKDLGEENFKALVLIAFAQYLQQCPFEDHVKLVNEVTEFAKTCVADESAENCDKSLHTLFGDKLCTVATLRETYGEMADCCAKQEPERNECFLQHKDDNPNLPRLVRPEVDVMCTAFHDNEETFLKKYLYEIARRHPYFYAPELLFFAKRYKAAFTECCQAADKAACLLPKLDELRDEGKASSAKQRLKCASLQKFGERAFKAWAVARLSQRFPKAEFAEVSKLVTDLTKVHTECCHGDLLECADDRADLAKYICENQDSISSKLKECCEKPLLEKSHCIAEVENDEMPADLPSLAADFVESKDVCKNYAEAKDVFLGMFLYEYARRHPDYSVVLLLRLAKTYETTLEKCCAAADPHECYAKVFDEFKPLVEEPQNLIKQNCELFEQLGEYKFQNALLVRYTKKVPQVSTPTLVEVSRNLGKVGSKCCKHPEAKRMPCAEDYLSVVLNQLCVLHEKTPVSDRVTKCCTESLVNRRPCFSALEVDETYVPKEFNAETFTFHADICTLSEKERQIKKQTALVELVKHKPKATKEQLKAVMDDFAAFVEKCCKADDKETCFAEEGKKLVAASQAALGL
# Assay Info: Drug displacement of bilirubin from albumin / interference, Bf measured with one-step cartridges
# Assay type: in vitro ADME
# Condition Info: percent increase of Bf for the 3x drug concentration relative to no drug; negative value = interference with the Bf sensor
Where a name gives a salt, the structure may show the parent alone.
Recorded Displacement or Interference values for a group of compounds are listed next.

Some entries whose results are on file:
* NS(=O)(=O)c1cc2c(cc1Cl)N=CNS2(=O)=O [Chlorothiazide] | 1626%
* C[C@@H]1[C@H](O)[C@@H](C)/C=C/C=C/C=C/C=C/C=C/C=C/C=C/[C@H](O[C@@H]2O[C@H](C)[C@@H](O)[C@H](N)[C@@H]2O)C[C@@H]2O[C@](O)(C[C@@H](O)C[C@@H](O)[C@H](O)CC[C@@H](O)C[C@@H](O)CC(=O)O[C@H]1C)C[C@H](O)[C@H]2C(=O)O | 199%
* CC(C)(O/N=C(\C(=O)N[C@@H]1C(=O)N2C(C(=O)[O-])=C(C[n+]3ccccc3)CS[C@H]12)c1csc(N)n1)C(=O)O [Ceftazidime sodium salt] | 76%
* NS(=O)(=O)c1cc(C(=O)O)c(NCc2ccco2)cc1Cl [Furosemide] | 820%
* CC(=O)S[C@@H]1CC2=CC(=O)CC[C@]2(C)[C@H]2CC[C@@]3(C)[C@@H](CC[C@@]34CCC(=O)O4)[C@H]12 | −98%
* Cc1onc(-c2ccccc2)c1C(=O)N[C@@H]1C(=O)N2[C@@H]1SC(C)(C)[C@@H]2C(=O)O | 616%
* Cc1nnc(SCC2=C(C(=O)O)N3C(=O)[C@@H](NC(=O)Cn4cnnn4)[C@H]3SC2)s1 [Cefazolin sodium salt] | 524%

Proceed to the following item.
So what does the record say about Displacement or Interference for "CO/N=C(\C(=O)N[C@@H]1C(=O)N2C(C(=O)O)=C(COC(C)=O)CS[C@H]12)c1csc(N)n1" ? 157%
